# Lookup of reported GI50 keyed by entry
Test system: TK-10 renal
assay-procedure: NCI tumour cell line growth inhibition, 48 h
observable: GI50

[[record]]
compound = "Nc1nc([Se])c2ncn(C3OC(CO)C(O)C3O)c2n1 (stereo not given)"
test_value = "7.55 µM"

[[record]]
compound = "COc1cc(/C=N/Nc2ncnc3c2cnn3-c2ccccc2)ccc1O"
test_value = "> 19.2 µM"

[[record]]
compound = "CNC(=O)c1c(NC(=O)c2ccc(C(C)(C)C)cc2)sc2c1CCC(=O)C2"
test_value = "0.374 µM"

[[record]]
compound = "COc1ccc2c(c1)[nH]c(=O)c1c3cccc(F)c3cn21"
test_value = "9.55 µM"

[[record]]
compound = "Cc1cccc2nc3ccccc3c(Nc3ccc(NS(C)(=O)=O)cc3)c12"
test_value = "6.58 µM"

